system: OVCAR-5; assay: NCI tumour cell line growth inhibition, 48 h
Activity calls are given as the source filed them. Rule as the data show it: active = GI50 up to about 1.1 µM and inactive = higher.
Labels: yes (active), no (inactive)

compound	group label
CCOC(=O)Cc1c(C)c2cc(C(=O)c3ccccc3)c(O)cc2oc1=O	no
CC(C)=C[C@H]1CCC2(OCCO2)[C@]1(C)CO	no
O=C(CC(Cc1ccccc1)c1ccc(Oc2ccccc2)cc1)Nc1cccc(Cl)c1 (stereo not given)	no
O=C1N[C@H]2c3c(Cl)sc(Cl)c3C(=O)[C@H]2O1	no
c1ccc2c(c1)N=c1ccccc1=P21c2ccccc2Nc2ccccc21	yes

====

test system: MOLT-4; experiment: NCI tumour cell line growth inhibition, 48 h
Calls of active or inactive are those of the source. No stated cut-off is given here; in the data, active = GI50 up to about 1.1 µM and inactive = higher.
Labels: true (1) for active, false (0) for inactive

compound	group label
CCN(CC)c1ccc2cc(C(=O)NCc3ccccc3)c(=N)oc2c1	false (0)
COC(=O)CCC1=C(CC(=O)OC)C(C)(OC)N/C1=N/C(=O)OCc1ccccc1 (stereo unspecified)	false (0)
Cc1ccc([S+]([O-])CC(CF)OCn2cc(C)c(=O)[nH]c2=O)cc1 (stereo unspecified)	false (0)
COc1ccc(N2C(=O)[C@H]3CC(C)c4c([nH]c5ccccc45)[C@H]3C2=O)cc1 (stereo partly specified)	false (0)
CCC1c2[nH]c3ccccc3c2C[C@H]2C(=O)NC(Cc3c[nH]c4ccccc34)C(=O)N12 (stereo partly specified)	false (0)
CN(C)N1C(=C(C#N)C#N)C(c2ccccc2)CC1C#N (stereo unspecified)	false (0)
Cc1cn(C2CCC(/C=N\O)O2)c(=O)[nH]c1=O (stereo unspecified)	false (0)
Cc1c2ccccc2c(C2C3C(=O)N(c4cccc5ccccc45)C(=O)C3ON2Cc2ccc(CC(N)=O)cc2)c2ccccc12 (stereo unspecified)	false (0)
CCN1C/C(=C\c2cc(OC)c(OC)c(OC)c2)C2=NN(c3ccccc3)C(c3cc(OC)c(OC)c(OC)c3)C2C1 (stereo unspecified)	false (0)
COc1ccc(CNc2cc(OC)cc(OC)c2)cc1	false (0)
O=C1C2C3CC4C5C3C1C5C1(SCCS1)C42 (stereo unspecified)	false (0)
O=C(CP(c1ccccc1)c1ccccc1)c1cccc(C(=O)CP(c2ccccc2)c2ccccc2)c1	false (0)
COc1cc(/C=C\c2nnc(/C=C\c3ccc(O)c(OC)c3)s2)ccc1O	false (0)
C/C1=C/C(C)CC(C)OC(=O)C(C)NC(=O)C(Cc2ccc(O)c(I)c2)N(C)C(=O)C(C)NC(=O)C(C)C1 (stereo unspecified)	true (1)
Clc1cc(Cc2cc(Cl)c(Cl)c3c2OCOC3)c2c(c1Cl)COCO2	false (0)
CC(Cc1ccccc1)Nc1ncnc2c1ncn2C1OC(CO)CC1O (stereo unspecified)	false (0)
c1cc(-c2ccc(-c3ccc(-c4ccc(-c5cccc6nsnc56)[nH]4)c4nsnc34)[nH]2)c2nsnc2c1	false (0)
CCOc1ccc(NCc2cc(OC)c(OC)c(OC)c2)cc1	true (1)
CCCc1nnc2sc(COc3cc(Cl)c(OCc4nn5c(CCC)nnc5s4)cc3Cl)nn12	true (1)
CCOC(=O)c1nc2cc(C(F)(F)F)ccc2nc1Oc1ccc(C(=O)OC)cc1	false (0)
CCOC(=O)c1cc(C2(OC)CCN(Cc3ccccc3)C2=O)c(-c2cc(C)no2)[nH]1 (stereo unspecified)	false (0)
CSc1nc2c(c(N3CCOCC3)n1)C(O)n1c(nc3ccccc31)S2 (stereo unspecified)	false (0)
Cc1c2cc[n+](C)cc2c(C)c2c1[nH]c1ccc(OC(C)C)cc12	false (0)
O=C(O)CN1CCN(CC(=O)N2CCN(C(=O)OCc3ccccc3)CC2)CCN(CC(=O)O)CCN(CC(=O)N2CCN(C(=O)OCc3ccccc3)CC2)CC1	false (0)
O=C1NC(=O)/C(=C/c2ccc(S(=O)(=O)N/N=C/c3ccc(Cl)cc3)cc2)N1	false (0)
CC1=C(C)C(=O)C2=C(OCCCO2)C1=O	false (0)

====

# reported GI50; entries follow
tested on: KM12; assay: NCI tumour cell line growth inhibition, 48 h
Activity calls are given as the source filed them. Cut-off read from the data, not from the text of the source: active = GI50 up to about 1.1 µM and inactive = higher.

compound	GI50
CN(C)CCCOCCn1c2c(c3ccccc31)CCCC2	21.2 µM (inactive)
COC(=O)C1(C(=O)OC)N=C(C)OC1C(C)C (stereo not given)	> 100 µM (inactive)
CCOC(=O)Oc1cc2ccsc2c2c1c1ccccc1n2C(=O)OCC	49.9 µM (inactive)
O=c1cc(O)cc2n1CCC2	> 100 µM (inactive)
COc1ccc(C2Cc3cc(OC)c(OC)c(OC)c3C2=O)cc1 (stereo not given)	> 100 µM (inactive)

====

In this section, each of the compounds is paired with its reported GI50.
system: HOP-18; experiment: NCI tumour cell line growth inhibition, 48 h
The source made the active and inactive calls. Rule as the data show it: active = GI50 up to about 1.1 µM and inactive = higher.

compound	GI50
Cc1c2cc[n+](C)cc2c(C)c2c1[nH]c1ccc(OC(C)C)cc12	3.75 µM (inactive)
CN(C)CC/C(=N\Nc1ccccc1)c1ccccc1	31 µM (inactive)
CCN1N=CSC12C(=O)N(c1ccccc1)C(=O)N2c1ccccc1 (centres undefined)	> 100 µM (inactive)
CCCC(OCC)(OCC)OCC	> 100 µM (inactive)
O=C(CSc1nnc(Cc2ccccc2)o1)Nc1ccccc1Cl	> 100 µM (inactive)
CC(=O)NNc1nc(C)c(C(=O)NNC(=O)C(=O)Nc2ccccc2C#N)s1	> 100 µM (inactive)
COc1ccc(Cc2nn(C3OC(COC(C)=O)C(OC(C)=O)C(OC(C)=O)C3OC(C)=O)c(=S)n(-c3ccc(OC)cc3)c2=O)cc1 (centres undefined)	> 94 µM (inactive)
CC(=O)c1ccc2c(ccc(=O)n2C)c1	> 100 µM (inactive)
CCC(C)C(N)C(=O)NC(CC(N)=O)C(=O)NC(CC(C)C)C(=O)NC(CCCCN)C(=O)NC(C)C(=O)NC(CC(C)C)C(=O)NC(C)C(=O)NC(C)C(=O)NC(CC(C)C)C(=O)NC(C)C(=O)NC(CCCCN)C(=O)NC(CCCCN)C(=O)NC(C(=O)NC(CC(C)C)C(N)=O)C(C)CC (centres undefined)	7.01 µM (inactive)
O=[N+]([O-])c1ccc(OCCNc2cccc3ccccc23)cc1	> 100 µM (inactive)
O=C1C(NCCO)=C(N2CC2)C(=O)C(NCCO)=C1N1CC1	> 100 µM (inactive)
CN(C)C(=S)/N=c1\ss/c(=N/c2ccccc2)n1C	> 100 µM (inactive)
CCOC(=O)CNC(=O)C(CSC(=O)N(C)O)NC(=O)CCC(N)C(=O)O (centres undefined)	462 µM (inactive)
CN(C)/C(N)=N\C#N	> 100 µM (inactive)

====

tested on: Malme-3M; test: NCI tumour cell line growth inhibition, 48 h
Calls of active or inactive are those of the source. No stated cut-off is given here; in the data, active = GI50 up to about 1.1 µM and inactive = higher.
Outcome codes: active, inactive

compound	study target	group label
CCOC(=O)c1nc2cc(C(F)(F)F)ccc2nc1Oc1ccc(C(=O)OC)cc1	Malme-3M	inactive
CCCC(OCC)(OCC)OCC	Malme-3M	inactive
C=C1CC2(OC1=O)c1ccccc1CCc1ccccc12	Malme-3M	inactive
CCN(c1ccccc1)[C@H]1C(=O)N(c2ccc([N+](=O)[O-])cc2)[C@H]1c1ccc(OC)cc1	Malme-3M	inactive
CCOC(=O)c1nc2ccccc2nc1NCc1ccc(OC)cc1	Malme-3M	inactive
CC(C)(C)C1=CC(=C2C=Cc3cc(O)ccc3O2)C=C(C(C)(C)C)C1=O	Malme-3M	inactive
Cc1cc(=O)oc2c(CN3CCCCC3)c(O)ccc12	Malme-3M	inactive
CCOC(=O)C(NC(=O)C(CCCCNP(=O)(OCC)OCC)NC(=O)C(C)NC(C)=O)C(C)C (stereo not drawn)	Malme-3M	inactive
COc1cc(/C=C/C(=O)c2ccc(O)c(OC)c2)ccc1O	Malme-3M	inactive
CCOC(=O)c1cc(-c2ccc(Cl)cc2)c([N+](=O)[O-])n1C	Malme-3M	inactive
C=C1C(C)C2C(Cc3ccccc3)NC(=O)C23C(OC(C)=O)C=CC(C)(O)C(=O)C(C)C/C=C/C3C1O (stereo not drawn)	Malme-3M	inactive
CS(=O)(=O)c1nc(-c2cc3c(c(S(C)(=O)=O)n2)CCCC3)cc2c1CCCC2	Malme-3M	inactive
O=C1N[C@H]2c3c(Cl)sc(Cl)c3C(=O)[C@H]2O1	Malme-3M	inactive
COc1cc(/C=C\c2nnc(/C=C\c3ccc(O)c(OC)c3)s2)ccc1O	Malme-3M	inactive
CCN1C/C(=C\c2cc(OC)c(OC)c(OC)c2)C2=NN(c3ccccc3)C(c3cc(OC)c(OC)c(OC)c3)C2C1 (stereo not drawn)	Malme-3M	active
O=c1c(O)cccn1C1OC(CO)C(O)C1O (stereo not drawn)	Malme-3M	inactive
O=C(CC(Cc1ccccc1)c1ccc(Oc2ccccc2)cc1)Nc1cccc(Cl)c1 (stereo not drawn)	Malme-3M	inactive
Cn1c(C(C)(C)OC(=O)Oc2ccccc2)cnc1[N+](=O)[O-]	Malme-3M	inactive

====

Listed compounds paired with reported GI50
system: K562; experiment: NCI tumour cell line growth inhibition, 48 h
Activity calls are given as the source filed them. No stated cut-off is given here; in the data, active = GI50 up to about 1.1 µM and inactive = higher.

compound	study target	GI50
CCOC(=O)c1c(-c2ccccc2)nc2ccccc2c1O	K562	> 100 µM (inactive)
CCOC(=O)c1cc(-c2ccc(Cl)cc2)c([N+](=O)[O-])n1C	K562	> 10 µM (inactive)
COc1cccc2c1C(=O)C1=C(C2=O)C(O)CC(C)(C)O1 (configuration not stated)	K562	21 µM (inactive)
O=C(N/N=C/c1cccc(O)c1O)N/N=C/c1cccc(O)c1O	K562	6.97 µM (inactive)
CCSC(SCC)=C1C(=O)N(c2ccccc2)N=C1C	K562	5.71 µM (inactive)
O=c1cc(O)cc2n1CCC2	K562	> 100 µM (inactive)
COS(=O)(=O)OCCC(NC(=O)OCc1ccccc1)C(=O)OCc1ccccc1 (configuration not stated)	K562	> 100 µM (inactive)
CC(=O)NS(=O)(=O)c1ccc(NCc2cccc3c(=O)c4ccc(Cl)cc4oc23)cc1	K562	6.14 µM (inactive)
COC(=O)/C(=N\NC(N)=O)C(C(=O)C(=O)Nc1ccccc1C(=O)OC)c1nc2ccc(C(=O)c3ccccc3)cc2nc1O (configuration not stated)	K562	> 100 µM (inactive)
CC(C)C(=O)/C=C/c1c(Cl)cccc1Cl	K562	9.35 µM (inactive)
C/C(=N\NC(=S)N1CCN(c2ccccn2)CC1)c1cccc2cccnc12	K562	2.46 µM (inactive)
Cc1cc2c(cc1C(=O)c1ccc(N)cc1)OCO2	K562	24.9 µM (inactive)
